- Target Entity: UniProtKB P31749
- Sequence (P31749 whole entry): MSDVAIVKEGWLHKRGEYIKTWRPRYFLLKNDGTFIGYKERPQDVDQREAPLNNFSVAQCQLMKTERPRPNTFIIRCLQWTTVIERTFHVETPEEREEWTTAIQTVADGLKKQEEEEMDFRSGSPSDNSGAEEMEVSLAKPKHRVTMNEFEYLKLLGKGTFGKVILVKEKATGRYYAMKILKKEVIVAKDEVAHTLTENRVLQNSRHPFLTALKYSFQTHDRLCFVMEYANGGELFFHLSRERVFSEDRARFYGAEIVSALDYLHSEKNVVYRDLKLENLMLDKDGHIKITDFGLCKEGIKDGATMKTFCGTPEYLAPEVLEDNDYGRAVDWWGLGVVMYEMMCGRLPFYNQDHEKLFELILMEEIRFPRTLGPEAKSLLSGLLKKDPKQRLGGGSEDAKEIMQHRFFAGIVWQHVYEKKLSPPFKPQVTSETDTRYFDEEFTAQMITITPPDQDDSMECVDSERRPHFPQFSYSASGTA
- Assay Procedure: Live cell target engagement by NanoBRET competitive probe displacement, AKT1 WT
- Reported Conditions: transfected HEK293 cells, 2 h at 37° C., read-out: AKT1 WT IC50: GeoMean IC50
pIC50: −log10 of the molar value.
Parameter: pIC50

stdin: Using the record for Nc1ncccc1-c1nc2ccc(C3CC3)nc2n1-c1ccc2c(c1)CC[C@@H]2NC(=O)c1ccc(O)c(C=O)c1 , report its pIC50.
stdout: 5.70 to 7.00

stdin: Using the record for Nc1ncccc1-c1nc2ccc(-n3cccn3)nc2n1-c1ccc2c(c1)CC[C@@H]2NC(=O)c1cc(C=O)c(O)c(Cl)c1F , report its pIC50.
stdout: 7.00 to 8.00

stdin: Using the record for Nc1ncccc1-c1nc2ccc(-n3cccn3)nc2n1-c1ccc2c(c1)CC[C@@H]2N1CCc2cc(O)c(C=O)cc2C1=O , report its pIC50.
stdout: ≤ 5.70

stdin: Using the record for Nc1ncccc1-c1nc2ccc(-n3cccn3)nc2n1-c1ccc2c(c1)CC[C@@H]2NC(=O)c1ccc(O)c(C=O)c1 , report its pIC50.
stdout: 7.00 to 8.00

stdin: Using the record for N#Cc1cnn(-c2ccc3nc(-c4cccnc4N)n(-c4ccc5c(c4)CC[C@@H]5NC(=O)c4ccc(O)c(C=O)c4)c3n2)c1 , report its pIC50.
stdout: 5.70 to 7.00

stdin: Using the record for CN(C)c1nc2cc(C(=O)N[C@H]3CCc4cc(-n5c(-c6cccnc6N)nc6ccc(-n7cccn7)nc65)ccc43)cc(C=O)c2[nH]1 , report its pIC50.
stdout: > 8.00

stdin: Using the record for Cn1ccc(-c2ccc3nc(-c4cccnc4N)n(-c4ccc5c(c4)CC[C@@H]5NC(=O)c4cc(C=O)c(O)cc4F)c3n2)n1 , report its pIC50.
stdout: 7.00 to 8.00
